tested on: modified HGP-30 (mH, SEQ ID NO:6); assay: Isotype analysis (ELISA) of anti-mH antibody in sera of immunized mice; assay type: in vivo; parameters: unit not given here; details: ELISA signal, day 42 test bleeding, group Average
Reported IgG3 is given for each of the following substances.
readout-type: IgG3

INSERT INTO results (substance, tested_on, readout_type, recorded_measurement) VALUES
  ('NGQ EEK AGV VST GLI GGG ATL YSV HQR IDV KDT KEA LEK IEE EQN KS (DGQEEKAGVVSTGLIGGGEAQNTTYL) [SEQ ID NO: 58, Peptide G linked by GGG spacer to modified HGP-30 (mH)]', 'modified HGP-30 (mH, SEQ ID NO:6)', 'IgG3', 0.531),
  ('DLL KNG ERI EKV EGG GAT LYS VHQ RID VKD TKE ALE KIE EEQ NKS (DGQEEKAGVVSTGLIGGGQYSWFVNGTF) [SEQ ID NO: 59, Peptide J linked by GGG spacer to modified HGP-30 (mH)]', 'modified HGP-30 (mH, SEQ ID NO:6)', 'IgG3', 0.070),
  ('VQG EES NDK GGG YSV HQR IDV KDT KEA LEK IEE EQN KSK KKA (DLLKNGERIEKVEGGGSTAPPAHGV) [SEQ ID NO: 63, Peptide F linked by GGG spacer to HGP-30]', 'modified HGP-30 (mH, SEQ ID NO:6)', 'IgG3', 0.044),
  ('DGQ EEK AGV VST GLI GGG ATL YSV HQR IDV KDT KEA LEK IEE EQN KS (DGQEEKAGVVSTGLIGGGYLSGANLNL) [SEQ ID NO: 57, Peptide G′ linked by GGG spacer to modified HGP-30 (mH)]', 'modified HGP-30 (mH, SEQ ID NO:6)', 'IgG3', 1.562);

====

Reported IgG1 values for the following substances.
test system: modified HGP-30 (mH, SEQ ID NO:6); experiment: Isotype analysis (ELISA) of anti-mH antibody in sera of immunized mice; format: in vivo; set-up: unit not given here; details: ELISA signal, day 42 test bleeding, group Average
readout-type: IgG1

INSERT INTO measurements (substance, readout_type, recorded_measurement) VALUES
  ('NGQ EEK AGV VST GLI GGG ATL YSV HQR IDV KDT KEA LEK IEE EQN KS (DGQEEKAGVVSTGLIGGGEAQNTTYL) [SEQ ID NO: 58, Peptide G linked by GGG spacer to modified HGP-30 (mH)]', 'IgG1', 1.400),
  ('VQG EES NDK GGG YSV HQR IDV KDT KEA LEK IEE EQN KSK KKA (DLLKNGERIEKVEGGGSTAPPAHGV) [SEQ ID NO: 63, Peptide F linked by GGG spacer to HGP-30]', 'IgG1', 0.652),
  ('DLL KNG ERI EKV EGG GAT LYS VHQ RID VKD TKE ALE KIE EEQ NKS (DGQEEKAGVVSTGLIGGGQYSWFVNGTF) [SEQ ID NO: 59, Peptide J linked by GGG spacer to modified HGP-30 (mH)]', 'IgG1', 0.717),
  ('DGQ EEK AGV VST GLI GGG ATL YSV HQR IDV KDT KEA LEK IEE EQN KS (DGQEEKAGVVSTGLIGGGYLSGANLNL) [SEQ ID NO: 57, Peptide G′ linked by GGG spacer to modified HGP-30 (mH)]', 'IgG1', 2.667);
